This section presents molecules with their documented Growth Rate values.
# Tested on: U2OS
# Procedure details: Incucyte cell viability with U2OS; also: filed as whole numbers so only -1 and 0 and 1 occur
# Type: toxicity, cell-based
# Details: human, 12 h, 10 µM, compound concentration 10 uM, replicate number 2, timepoint 12 hours
No unit in the answer, only the number.

# Molecule, Measurement
measured = [
    ("COc1ccc(S(=O)(=O)c2cc(OC)ccc2S(=O)(=O)c2ccc([C@H](C)NS(C)(=O)=O)cc2)cc1", 1),
    ("O=c1[nH]c2ccccc2n1C1CCN(Cc2ccc(-c3[nH]c4cc5ncnc5cc4nc3-c3ccccc3)cc2)CC1", 1),
    ("Cn1c(CNc2cccc(C(=O)NCc3ccccc3C(F)(F)F)c2)nnc1-c1ccncc1", 1),
    ("C[C@H](c1ccc(F)cc1)N(Cc1cccc(C(=O)O)c1)C(=O)c1cnc2ccccc2c1 [PF-05105679]", 1),
    ("O=C(Cc1ccccc1)Nc1nc2ccc(Cl)cc2c2nc(-c3ccco3)nn12", 0),
]

Query :: Item under review: `C[C@H](NC[C@H](O)CP(=O)(O)CC1CCCCC1)c1ccc(Cl)c(Cl)c1.Cl` . Reported Growth Rate?
Result :: 0

Query :: Also, C#Cc1cccc(Nc2ncnc3cc(OCCOC)c(OCCOC)cc23)c1 [ERLOTINIB] please.
Result :: 0

Query :: Also, `Nc1ncnc2c1ccn2[C@@H]1O[C@H]([C@H](O)c2ccccc2)[C@@H](O)[C@H]1O` please.
Result :: 1

Query :: Also, Cc1cnc(-c2cc(Cl)ccc2F)cc1-n1c(=O)n(CC(N)=O)c2ccccc21 [Al11] please.
Result :: 0
